# maps each entry to its GI50
Tested on: PC-3
Assay: NCI tumour cell line growth inhibition, 48 h
Calls of active or inactive are those of the source. No stated cut-off is given here; in the data, active = GI50 up to about 1.1 µM and inactive = higher.

Solved cases (4 shown):
1. CN(C)c1ccc(/C=N/n2c(-c3ccccc3)nc3ccccc3c2=O)cc1	24.5 µM (inactive)
2. CNC(=O)Nn1c(SC)nc2ccccc21	> 100 µM (inactive)
3. O=C1/C(=C\c2cccc(Oc3ccccc3)c2)S(=O)(=O)C(c2ccccc2)N1c1ccc(Cl)cc1 (stereo unspecified)	17.1 µM (inactive)
4. C/C=C(/C)C(=O)O[C@@H]1c2c(C)coc2C[C@H]2CC[C@H](O)[C@H](C)[C@]21C	97.7 µM (inactive)

Recorded GI50 (molecule C/C=C\C(CC(=O)NCCC1CN(S(=O)(=O)C(F)(F)F)c2ccccc21)CC(=O)OC (stereo unspecified) ): 35.4 µM (inactive)

Recorded GI50 (molecule COc1cc2cc(C(=O)Nc3cc4n(n3)-c3ccccc3C4)[nH]c2c(OC)c1OC ): 2.71 µM (inactive)

###

Test system: SK-MEL-5
Test: NCI tumour cell line growth inhibition, 48 h
Calls of active or inactive are those of the source. No stated cut-off is given here; in the data, active = GI50 up to about 1.1 µM and inactive = higher.
Use one of these outcomes when replying: Yes = active, No = inactive

These recorded examples may help you get a feel for the data.
1) O=c1[nH]/c(=C/c2ccc3c(c2)OCO3)c(=O)[nH]/c1=C/c1ccc2c(c1)OCO2	No
2) CCNCCC1(CC)C(=O)NC(=O)NC1=O	No
3) COc1ccc(C2=CC(c3ccccc3)n3nnnc3N2)cc1 (centres undefined)	No
4) N#CC1=C(N)N(/N=C/c2ccccc2)C(c2ccccc2)C1(C#N)C#N (centres undefined)	No
5) CC1=C(C(=O)N[C@@H](Cc2ccccc2)C(=O)O)N2C(=O)[C@@H](NC(=O)[C@@H](N)CC(C)C)[C@H]2SC1	No
6) O=C1OCC/C1=C/c1ccc(/N=N/c2c(O)ccc3ccccc23)cc1	No
7) CCN(CC)/C(=C\Cl)Nc1ccccn1.[O-][Cl+3]([O-])([O-])O	No
8) Cc1cc(S(=O)(=O)Nc2nc3ccsc3c(=O)n2N)c(S)cc1Cl	No

Request: Identify the outcome logged in this assay for the compound shown: O=C(O)c1ccccc1C(=O)Nn1cnnc1
Response: No

Request: Identify the outcome logged in this assay for the compound shown: O=C1OC2(c3ccccc31)c1cc(I)c(O)c(I)c1Oc1c2cc(I)c(O)c1I [ERYTHROSINE]
Response: No

Request: Identify the outcome logged in this assay for the compound shown: COc1ccc2c3c([nH]c2c1[N+](=O)[O-])C(C)N(C)CC3 (centres undefined)
Response: No

Request: Identify the outcome logged in this assay for the compound shown: CCNC(=O)Cc1nc2c(N)ncnc2n1C1OC(CO)C(O)C1O (centres undefined)
Response: No

Request: Identify the outcome logged in this assay for the compound shown: CC(=O)Oc1c(C)c(-c2ccccc2)c(C)c(-c2ccccc2)c1C(=S)c1ccccc1
Response: No

Request: Identify the outcome logged in this assay for the compound shown: C/C=C(/C)C(=O)O[C@@H]1c2c(C)coc2C[C@H]2CC[C@H](O)[C@H](C)[C@]21C
Response: No

###

System: HOP-92
Experiment: NCI tumour cell line growth inhibition, 48 h
The source made the active and inactive calls. Cut-off read from the data, not from the text of the source: active = GI50 up to about 1.1 µM and inactive = higher.
reported-endpoint: GI50

1. CC(=O)N1C(Nc2ccccn2)CCN1c1ccccc1 (stereo not given)	> 10 µM (inactive)

Recorded GI50 (compound CC(O)(C#N)CC(O)(C(F)(F)Cl)C(F)(F)Cl (stereo not given) ): > 10 µM (inactive)

Recorded GI50 (compound Nc1cc2c(cc1[N+](=O)[O-])[nH]c1c(-c3ccccc3)nccc12 ): 12 µM (inactive)

Recorded GI50 (compound O=C(CCN1CC2CCC(CC2)C1)c1cccs1 ): 6.01 µM (inactive)

Recorded GI50 (compound Cc1ccc([N+](=O)[O-])cc1S(=O)(=O)Nc1ccc(C2=NOC(c3ccco3)C2)cc1 (stereo not given) ): 29.2 µM (inactive)
